FYI, the data here is from patent US20110118447A1.

Reported log10 fold difference in affinity vs original values for the following binders.
- STUDY TARGET: binding partner of C5A (XPA23)
- METHOD: Biacore K-off
Heads up: the numbers are on a log10 scale; they represent fold difference in affinity vs original in fold.

Answered cases to consult:
C5A (XPA23) VL S50K (antibody, V domains shown) VH: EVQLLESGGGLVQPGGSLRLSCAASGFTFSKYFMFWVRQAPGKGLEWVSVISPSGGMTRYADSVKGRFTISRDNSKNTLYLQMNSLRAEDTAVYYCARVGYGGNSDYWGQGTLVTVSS VL: DIQMTQSPSSVSASVGDRLTIICRASQDINRWLAWYQQTPGNAPKLLIHKATSLQSGVPSRFSGSGSGTDFTLTINSLQPEDFATYYCQQADSFPLTFGGGTKVEIK; -1.00
C5A (XPA23) VL S50Q (antibody, V domains shown) VH: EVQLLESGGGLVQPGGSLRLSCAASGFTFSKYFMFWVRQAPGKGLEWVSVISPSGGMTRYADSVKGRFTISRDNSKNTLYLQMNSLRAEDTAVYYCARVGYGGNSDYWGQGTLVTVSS VL: DIQMTQSPSSVSASVGDRLTIICRASQDINRWLAWYQQTPGNAPKLLIHQATSLQSGVPSRFSGSGSGTDFTLTINSLQPEDFATYYCQQADSFPLTFGGGTKVEIK; -0.68
C5A (XPA23) VL R31F (antibody, V domains shown) VH: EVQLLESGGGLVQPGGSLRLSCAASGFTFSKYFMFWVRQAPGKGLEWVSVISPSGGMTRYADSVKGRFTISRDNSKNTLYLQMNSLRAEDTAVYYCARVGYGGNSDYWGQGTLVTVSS VL: DIQMTQSPSSVSASVGDRLTIICRASQDINFWLAWYQQTPGNAPKLLIHSATSLQSGVPSRFSGSGSGTDFTLTINSLQPEDFATYYCQQADSFPLTFGGGTKVEIK; -0.04

Req: Look up and state reported log10 fold difference in affinity vs original for C5A (XPA23) VL A51E (antibody, V domains shown) VH: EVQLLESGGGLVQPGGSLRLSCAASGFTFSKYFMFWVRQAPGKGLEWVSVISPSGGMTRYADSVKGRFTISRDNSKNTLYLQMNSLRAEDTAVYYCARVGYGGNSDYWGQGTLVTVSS VL: DIQMTQSPSSVSASVGDRLTIICRASQDINRWLAWYQQTPGNAPKLLIHSETSLQSGVPSRFSGSGSGTDFTLTINSLQPEDFATYYCQQADSFPLTFGGGTKVEIK
Resp: -0.54

Req: Look up and state reported log10 fold difference in affinity vs original for C5A (XPA23) VL Q27A (antibody, V domains shown) VH: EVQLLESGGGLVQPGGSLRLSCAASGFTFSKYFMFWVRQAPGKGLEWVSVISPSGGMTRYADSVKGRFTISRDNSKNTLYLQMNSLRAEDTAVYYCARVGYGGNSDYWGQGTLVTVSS VL: DIQMTQSPSSVSASVGDRLTIICRASADINRWLAWYQQTPGNAPKLLIHSATSLQSGVPSRFSGSGSGTDFTLTINSLQPEDFATYYCQQADSFPLTFGGGTKVEIK
Resp: 0.17

Req: Look up and state reported log10 fold difference in affinity vs original for C5A (XPA23) VL N30R (antibody, V domains shown) VH: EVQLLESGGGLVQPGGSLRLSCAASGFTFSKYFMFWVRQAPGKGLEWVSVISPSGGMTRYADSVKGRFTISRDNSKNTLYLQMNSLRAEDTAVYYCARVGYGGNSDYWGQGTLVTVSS VL: DIQMTQSPSSVSASVGDRLTIICRASQDIRRWLAWYQQTPGNAPKLLIHSATSLQSGVPSRFSGSGSGTDFTLTINSLQPEDFATYYCQQADSFPLTFGGGTKVEIK
Resp: -0.13

Req: Look up and state reported log10 fold difference in affinity vs original for C5A (XPA23) VL S50E (antibody, V domains shown) VH: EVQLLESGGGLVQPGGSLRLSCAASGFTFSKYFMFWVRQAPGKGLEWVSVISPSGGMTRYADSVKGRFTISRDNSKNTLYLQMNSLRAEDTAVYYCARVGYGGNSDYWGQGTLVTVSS VL: DIQMTQSPSSVSASVGDRLTIICRASQDINRWLAWYQQTPGNAPKLLIHEATSLQSGVPSRFSGSGSGTDFTLTINSLQPEDFATYYCQQADSFPLTFGGGTKVEIK
Resp: -1.70

Req: Look up and state reported log10 fold difference in affinity vs original for C5A (XPA23) VH K31Y (antibody, V domains shown) VH: EVQLLESGGGLVQPGGSLRLSCAASGFTFSYYFMFWVRQAPGKGLEWVSVISPSGGMTRYADSVKGRFTISRDNSKNTLYLQMNSLRAEDTAVYYCARVGYGGNSDYWGQGTLVTVSS VL: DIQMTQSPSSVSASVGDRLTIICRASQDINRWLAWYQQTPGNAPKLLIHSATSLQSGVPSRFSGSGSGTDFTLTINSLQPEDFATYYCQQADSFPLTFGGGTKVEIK
Resp: -1.40

Req: Look up and state reported log10 fold difference in affinity vs original for C5A (XPA23) VH F33P (antibody, V domains shown) VH: EVQLLESGGGLVQPGGSLRLSCAASGFTFSKYPMFWVRQAPGKGLEWVSVISPSGGMTRYADSVKGRFTISRDNSKNTLYLQMNSLRAEDTAVYYCARVGYGGNSDYWGQGTLVTVSS VL: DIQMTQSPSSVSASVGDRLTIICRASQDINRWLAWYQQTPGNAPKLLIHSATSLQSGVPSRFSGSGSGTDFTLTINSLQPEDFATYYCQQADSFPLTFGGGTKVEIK
Resp: -0.04

Req: Look up and state reported log10 fold difference in affinity vs original for C5A (XPA23) VL L96N (antibody, V domains shown) VH: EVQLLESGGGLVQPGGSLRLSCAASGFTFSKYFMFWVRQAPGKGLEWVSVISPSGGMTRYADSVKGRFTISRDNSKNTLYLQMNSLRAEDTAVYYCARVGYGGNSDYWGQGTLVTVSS VL: DIQMTQSPSSVSASVGDRLTIICRASQDINRWLAWYQQTPGNAPKLLIHSATSLQSGVPSRFSGSGSGTDFTLTINSLQPEDFATYYCQQADSFPNTFGGGTKVEIK
Resp: -1.22
